target: Lysosomal alpha-glucosidase (Homo sapiens) (UniProt P10253); assay: qHTS Assay for Activators of Human alpha-Glucosidase as a Potential Chaperone Treatment of Pompe Disease; conditions: purified enzyme, 4-MU-alpha-glucoside fluorescence, 20 min; series mostly up to 76.9 µM; further: potency means the concentration at half of the fitted maximal effect; nearly all actives have a fitted effect of over 80% in size
In all, about 200,000 compounds went through this assay and about 720 (0.36%) were called active. Another 8% or so got no clear call; they are omitted. The list shows a part of the results.
In this section, each of the compounds is paired with its reported Potency.

# example entries with known answers
INSERT INTO results (compound, assayed_system, recorded_measurement) VALUES
  ('Nc1ccccc1-c1nnc(-c2ccc(-c3ccccc3)cc2)o1', 'Lysosomal alpha-glucosidase (Homo sapiens) (UniProt P10253)', '35.5 µM (active)'),
  ('CNc1nc(-c2ccccc2)cc(C)c1S(C)(=O)=O', 'Lysosomal alpha-glucosidase (Homo sapiens) (UniProt P10253)', '28.2 µM (active)'),
  ('CN1C(=O)c2ccccc2N(C)C1c1ccccc1Cl (stereo unspecified)', 'Lysosomal alpha-glucosidase (Homo sapiens) (UniProt P10253)', '39.8 µM (active)'),
  ('CCCCNS(=O)(=O)c1ccc2nc(-c3cccs3)cc(C(=O)NCC(OC)OC)c2c1', 'Lysosomal alpha-glucosidase (Homo sapiens) (UniProt P10253)', '25.1 µM (active)'),
  ('CC(=O)Nc1nc2n(n1)C(c1ccc(Cl)cc1)C=C(C)N2 (stereo unspecified)', 'Lysosomal alpha-glucosidase (Homo sapiens) (UniProt P10253)', '35.5 µM (active)');

Next:
# input Answer with reported Potency of Cc1cc(NCCCO)n2c(nc3ccccc32)c1C#N
# output 35.5 µM (active)

----------
In this section, each of the molecules is paired with its reported Potency.
target: Lysosomal alpha-glucosidase (Homo sapiens) (UniProt P10253); assay: qHTS Assay for Activators of Human alpha-Glucosidase as a Potential Chaperone Treatment of Pompe Disease; details: purified enzyme, 4-MU-alpha-glucoside fluorescence, 20 min; series mostly up to 76.9 µM; further: potency means the concentration at half of the fitted maximal effect; nearly all actives have a fitted effect of over 80% in size
The campaign covered roughly 200,000 compounds. About 720 (0.36%) were called active. Inconclusive results (about 8%) are left out. This is one part of the list.

INSERT INTO measurements (compound_string, measurement_label, recorded_measurement) VALUES
  ('Fc1ccc(-n2c(-c3cccs3)nc3nc4ccccc4nc32)cc1', 'Potency', '3.55 µM (active)'),
  ('O=c1[nH]c(=O)c2nc(-c3ccc(Cl)cc3)cnc2[nH]1', 'Potency', '28.2 µM (active)'),
  ('CC(=O)Nc1cc2c(ccc3ccccc32)oc1=O', 'Potency', '25.1 µM (active)'),
  ('Fc1ccc(CSc2nnc(-c3cc4c(s3)-c3ccccc3CC4)o2)cc1', 'Potency', '28.2 µM (active)'),
  ('C=CCSc1nnc(-c2cc3c(s2)-c2ccccc2CC3)o1', 'Potency', '25.1 µM (active)'),
  ('CCOP(=O)(OCC)c1nc(/C=C/c2ccccc2)oc1NCc1ccccc1', 'Potency', '35.5 µM (active)');

# input Answer with reported Potency of CCOC(=O)c1cc2c(ccc3ccccc32)oc1=O
# output 35.5 µM (active)

# input Answer with reported Potency of Fc1cccc(-n2c(-c3ccco3)nc3nc4ccccc4nc32)c1
# output 6.31 µM (active)

# input Answer with reported Potency of NC(=O)c1cc2ccc(O)cc2oc1=NCc1ccccc1
# output 35.5 µM (active)

# input Answer with reported Potency of Nc1ccc(-c2nc3ccc(C(=O)O)cc3s2)cc1
# output 35.5 µM (active)

# input Answer with reported Potency of CSc1nnc(-c2cc3c(s2)-c2ccccc2CC3)o1
# output 35.5 µM (active)

# input Answer with reported Potency of Fc1ccc(-n2c(-c3ccco3)nc3nc4ccccc4nc32)cc1
# output 7.94 µM (active)
